- System: biotinyl-Leu-oxazolone
- ASSAY_COMMENT: self-aminoacylation, catalytic enhancement (BLO) (fold over background); higher = more active; k-Seq, kA / k0A0; sequences stand for … in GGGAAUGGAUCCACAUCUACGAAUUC…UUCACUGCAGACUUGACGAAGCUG
Fewer inactive variants are shown than the library holds.
In this section we review reported self-aminoacylation values for a set of sequences.

# CHAIN, self-aminoacylation
records = [
    ("AAGUUUGCUCAUAGUCUCAAG [Fam3.1 aminoacylation ribozyme variant]", 0.977),
    ("CCACACUUCAAGCACUGGGUC [Fam1B.1 aminoacylation ribozyme variant]", 0.971),
    ("CUACUUCAAAUAAUCGGUGUG [Fam1A.1 aminoacylation ribozyme variant]", 1),
    ("AAGUUAGCUAAAAGUCGCAAG [Fam3.1 aminoacylation ribozyme variant]", 2.01),
    ("CCUCAUUUCAAGCAAUCGGUC [Fam1B.1 aminoacylation ribozyme variant]", 1.08),
    ("AAGUUCGUUAAUAGUCGCAAG [Fam3.1 aminoacylation ribozyme variant]", 1.94),
    ("AUUCAGCUAGGUAAUCGGGUG [Fam2.2 aminoacylation ribozyme variant]", 4.57),
    ("CUCCUUCAAACUAUCGGUCUG [Fam1A.1 aminoacylation ribozyme variant]", 0.895),
    ("AUUAUCCUGUUCAUCGAGUGA [Fam2.1 aminoacylation ribozyme variant]", 6),
    ("CCACACUUCGAGCAAACGGUC [Fam1B.1 aminoacylation ribozyme variant]", 0.632),
    ("GCACACGUCAAGCAAUCGGUC [Fam1B.1 aminoacylation ribozyme variant]", 2.18),
    ("AUUACGUUGGUCAUCGAGUGA [Fam2.1 aminoacylation ribozyme variant]", 4.86),
    ("AUUACCCUGGACAUCCAGUGA [Fam2.1 aminoacylation ribozyme variant]", 3.82),
]

----------
- Tested on: biotinyl-Val-oxazolone
- ASSAY_COMMENT: self-aminoacylation, catalytic enhancement (BVO) (fold over background); higher = more active; k-Seq, kA / k0A0; sequences stand for … in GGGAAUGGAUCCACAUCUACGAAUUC…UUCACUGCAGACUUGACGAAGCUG
Variants at the floor of the assay were thinned out.
Is self-aminoacylation at least 3? Then Met. If not, Not met.

# CHAIN, DISCRETE_LABEL
data = [
    ("AUUCUCCUAGGUCCUCGGGUG [Fam2.2 aminoacylation ribozyme variant]", "Met"),
    ("AUUCCCCUAGGUCAUCGGGUC [Fam2.2 aminoacylation ribozyme variant]", "Met"),
    ("CGACACUUCAAUCAAUCGGUC [Fam1B.1 aminoacylation ribozyme variant]", "Not met"),
    ("AAGUUUGCUAGUAGUCGCAGG [Fam3.1 aminoacylation ribozyme variant]", "Not met"),
    ("AUUCAGCUAGGUAAUCGGGUG [Fam2.2 aminoacylation ribozyme variant]", "Not met"),
    ("AUUACUCUGGACAUCGAGUGA [Fam2.1 aminoacylation ribozyme variant]", "Not met"),
    ("AGUACACUGGUCAUCGAGUGA [Fam2.1 aminoacylation ribozyme variant]", "Not met"),
    ("CCACACUUAAAGCAAACGGUC [Fam1B.1 aminoacylation ribozyme variant]", "Not met"),
    ("AUUACCACGGUCAUCGAGUGA [Fam2.1 aminoacylation ribozyme variant]", "Met"),
    ("AUGCACCUAGGUCAUCGGGUU [Fam2.2 aminoacylation ribozyme variant]", "Met"),
]
